Entries and their shrunken log2 fold change values follow.
- System: Escherichia coli TOP10;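 further: peptides expressed intracellularly from a pBAD plasmid library in pooled LB shake-flask culture, induced with 0.3% L-arabinose, DNA abundance read by NGS, three biological replicates, DESeq2 with apeglm shrinkage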
- run_description: shrunken log2 fold change of peptide-encoding DNA abundance (4.5 h post-induction vs induction); higher = less antimicrobial activity (less host growth inhibition)
- condition_summary: time post-induction: 4.5 h; library: site-saturation at positions 5, 18, 19, 20

# biosequence, study_system, shrunken log2 fold change
records = [
    ("RRIRLRPPRLPRPRPRPRPEPRP", "Escherichia coli TOP10", 0.799),
    ("RRIRNRPPRLPRPRPRPIWCPRP", "Escherichia coli TOP10", -0.0833),
    ("RRIRWRPPRLPRPRPRPDYAPRP", "Escherichia coli TOP10", -0.0174),
    ("RRIRLRPPRLPRPRPRPIREPRP", "Escherichia coli TOP10", -0.27),
    ("RRIRARPPRLPRPRPRPAIYPRP", "Escherichia coli TOP10", -0.0399),
    ("RRIRTRPPRLPRPRPRPAMTPRP", "Escherichia coli TOP10", 0.126),
    ("RRIRERPPRLPRPRPRPIMWPRP", "Escherichia coli TOP10", -0.268),
    ("RRIRFRPPRLPRPRPRPCSIPRP", "Escherichia coli TOP10", 0.0647),
    ("RRIRIRPPRLPRPRPRPMRAPRP", "Escherichia coli TOP10", 1.01),
    ("RRIRFRPPRLPRPRPRPWPYPRP", "Escherichia coli TOP10", 0.0261),
    ("RRIRYRPPRLPRPRPRPRMKPRP", "Escherichia coli TOP10", -0.241),
    ("RRIRMRPPRLPRPRPRPLKAPRP", "Escherichia coli TOP10", 0.541),
    ("RRIRSRPPRLPRPRPRPSHYPRP", "Escherichia coli TOP10", -1.44),
    ("RRIRCRPPRLPRPRPRPPNQPRP", "Escherichia coli TOP10", 0.107),
    ("RRIRARPPRLPRPRPRPLHMPRP", "Escherichia coli TOP10", 1.15),
]
